Answer each item with its documented IC50.
Target: human PD-L1 / Human PD-1 (Homo sapiens (Human), UniProt Q9NZQ7)
Sequence (Q9NZQ7 19-239): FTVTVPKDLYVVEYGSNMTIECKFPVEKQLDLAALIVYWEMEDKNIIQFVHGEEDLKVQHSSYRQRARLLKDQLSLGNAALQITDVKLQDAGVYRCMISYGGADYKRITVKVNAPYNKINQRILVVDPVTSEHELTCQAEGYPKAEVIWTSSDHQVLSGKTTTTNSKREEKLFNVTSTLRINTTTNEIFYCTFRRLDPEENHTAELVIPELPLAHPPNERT
Assay: Enzyme-Linked Immunosorbent Assay (ELISA), PD-1/PD-L1 binding
Conditions: plate-coated human PD-L1, biotinylated human PD-1

// known answers, use as guide
                                   compound  reported_metric  value_measured
0  N#Cc1cncc(COc2cc(O[C@H]3CCc4c(-c5cccc(OCCCN6CCC(F)CC6)c5Cl)cccc43)c(Cl)cc2CN[C@H]2CCOC[C@@H]2O)c1             IC50          < 5 nM
1  CCCC(CO)(NCc1cc(Cl)c(O[C@H]2CCc3c(-c4cccc(OCCCN5CC(O)C5)c4Cl)cccc32)cc1OCc1cncc(C#N)c1)C(=O)O (stereo partly shown)             IC50          < 5 nM
2  Cc1c(OCCCN2CCC(O)CC2)cccc1-c1cccc2c1CC[C@@H]2Oc1cc(OCc2cncc(C#N)c2)c(CNCc2cn(C)cn2)cc1Cl             IC50          < 5 nM
3  N#Cc1cncc(COc2cc(O[C@H]3CCc4c(-c5cccc(OCCCN6CCC(F)CC6)c5Cl)cccc43)c(Cl)cc2CN[C@H]2CCC[C@H]2O)c1             IC50          < 5 nM
4  Cc1c(OCCCN2CCC(F)CC2)cccc1-c1cccc2c1C[C@H](F)[C@@H]2Oc1cc(OCc2cc(C#N)cc(C#N)c2)c(CN[C@H]2CCC(=O)NC2)cc1Cl             IC50     5 to 500 nM
5  Cc1c(OCCCN2CCC(C)CC2)cccc1-c1cccc2c1CC[C@@H]2Oc1cc(OCc2cc(C#N)cc(C#N)c2)c(CNC[C@@H]2CCC(=O)N2)cc1Cl             IC50          < 5 nM
6  N#Cc1cncc(COc2cc(O[C@H]3CCc4c(-c5cccc(OCCCN6CC7(CC(F)C7)C6)c5Cl)cccc43)c(Cl)cc2CN[C@@H]2CCCC[C@@H]2O)c1             IC50          < 5 nM
7  N#Cc1cc(C#N)cc(COc2cc(O[C@@H]3c4cccc(-c5cccc(OCCCN6CC(O)C6)c5Cl)c4C[C@@H]3F)c(Cl)cc2CNC[C@H]2CCC(=O)N2)c1             IC50          < 5 nM

Quick batch: IC50 for everything below.
1. CCOc1cc(O[C@H]2CCc3c(-c4cccc(OCCCN5[C@H](C)CC[C@H]5C)c4C)cccc32)c(Cl)cc1CN1CCCC[C@@H]1C(=O)O
2. Cc1c(OCCCN2CCC(O)CC2)cccc1-c1cccc2c1CC[C@@H]2Oc1cc(OCc2cncc(C#N)c2)c(CN[C@H](C(=O)NS(C)(=O)=O)[C@@H](C)O)cc1Cl
3. Cc1c(OCCCN2CCCCC2)cccc1-c1cccc2c1CC[C@@H]2Oc1cc(OCc2cc(C#N)cc(C#N)c2)c(CN[C@@H]2CCCC[C@@H]2O)cc1Cl
4. Cc1c(OCCCN2CCCCC2)cccc1-c1cccc2c1CC[C@@H]2Oc1cc(OCc2cncc(C#N)c2)c(CNC[C@@H]2CCC(=O)N2)cc1Cl
5. COc1cc(O[C@H]2CCc3c(-c4cccc(OCCCN5CCC(F)CC5)c4Cl)cccc32)c(Cl)cc1CN[C@@H]1CCCC[C@@H]1O

-- reply
1: 5 to 500 nM; 2: < 5 nM; 3: < 5 nM; 4: < 5 nM; 5: 5 to 500 nM
